Value source: patent US20160297892A1

Target: T1, EGF domain 3 and 4 of recombinant human Protein S (human, UniProt P07225 201-286, limits assumed)
T1 construct: domain: EGF domain 3 and 4; also called hEGF3-4
T1 sequence (looked up): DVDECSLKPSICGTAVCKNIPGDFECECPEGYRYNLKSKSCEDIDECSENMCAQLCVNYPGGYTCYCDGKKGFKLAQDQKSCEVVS
Experiment: ELISA, calcium-free TBS;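 further: binding of mouse antibodies detected by ELISA with an HRP-conjugated goat anti-mouse IgG secondary and TMB substrate development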
MEASURED_PROPERTY: binding result

>>> observed_result("M-hProtS-6F120A1 monoclonal antibody (antibody, mouse IgG1, V domains shown, Purified from hybridoma supernatant; mouse IgG1, kappa) VH: EIQLQQSGPELVKPGASVKVSCKASGYSFTDYNMYWVKQSHGKSLEWIGYIDPYNGGTSYNQKFKGKATLTVDKSSSTAFMHLNSLTSEDSAVYYCARERDYWYFDVRGAGTTVTVSS VL: DIVLTQSPASLAVSLGQRATISCRASKSVSASGYSYMHWYQQKPGQPPKLLIYLASNLESGVPARFSGSGSGTDFTLNIHPVEEEDAATYYCQHSRELPLTFGAGTKLELKR")
"no binding"
>>> observed_result("M-hProtS-3F62A5 monoclonal antibody (antibody, mouse IgG1, V domains shown, Purified from hybridoma supernatant; mouse IgG1, kappa) VH: EVLLQQSGPELVKPGASVKITCKASGYTFTDYNMDWVKQSHGKSLEWIGDIDPNNGGTIYNQEFTGKATLTVDTSSSTAYMELRSLTSEDTAVYYCVRSEIFTTAPDYGVDYWGQGTSVTVSS VL: ENVLTQSPAIMSASPGEKVTMTCRASSSVSSSYLHWYRQKSGASPKLWIYSTSNLASGVPARFSGSGSGTSYSLTISRVEAEDAATYYCQQYSGYPRTFGGGTKVEIKR")
"no binding"
>>> observed_result("M-hProtS-2F380A1 monoclonal antibody (antibody, mouse IgG1, V domains shown, Purified from hybridoma supernatant; mouse IgG1, kappa) VH: EVKLEESGGGLVQPGGSMKLSCAASGFTFSDAWMDWVRQSPEKGLEWVAEVRSKADNHATYYAESVKGRFTISRDDSKSAVYLQMNSLRPEDTGIYYCTLTTAFLFDSWGQGTTLTVSS VL: QIALTQSPAIMSASPGEKVTMTCSVNSSVSYMHWYQQKPGSSPRLWIYDTSNLVSGVPGRFSGSGSGTSYSLTLSSMEAEDAATYYCQQYSGYLYTFGGGTKLEIKR")
"no binding"
